- TESTED_TARGET: CDK2/Cyclin E complex (Homo sapiens)
- EXPERIMENT: CDK2/Cyclin E fluorescence-based microfluidic mobility shift assay (CDK2 Biochemical Caliper Assay)
- CONDITIONS: read-out: Biochemical CDK2/CyclinE Caliper IC50
Kindly state IC50 for each of the entries shown.

Sample COCc1cc(C(=O)Nc2cc([C@@H]3CC[C@H](Oc4cn[nH]c4C(C)C)C3)[nH]n2)n(C)n1 ; IC50 observed: 250 to 1000 nM

Sample COCc1cc2c(Nc3cc([C@H]4C[C@@H](OC(=O)C5CCC5(C)C)CO4)[nH]n3)nccn2n1 (stereo partly shown) ; IC50 observed: ≤ 100 nM

Sample Cn1nc(COC(F)(F)F)cc1C(=O)Nc1cc([C@H]2C[C@@H](OC(=O)NC34C5C6C7C5C3C7C64)CO2)[nH]n1 (stereo partly shown) ; IC50 observed: ≤ 100 nM

Sample Cn1cc2ccnc(Nc3cc([C@H]4C[C@@H](OC(=O)NC5(C)CC5)CO4)[nH]n3)c2n1 ; IC50 observed: 1000 to 100000 nM

Sample Cn1nc(CC(F)(F)F)cc1C(=O)Nc1cc([C@H]2C[C@@H](OC(=O)NC3(C)CC3)CO2)[nH]n1 ; IC50 observed: ≤ 100 nM

Sample Cn1cnc2c(Nc3cc([C@H]4C[C@@H](OC(=O)NC5(C)CC5)CO4)[nH]n3)nccc21 ; IC50 observed: 1000 to 100000 nM

Sample COCc1cc2c(Nc3cc([C@H]4C[C@@H](OC(=O)NC5CCC5)CO4)[nH]n3)nccn2n1 ; IC50 observed: ≤ 100 nM

====

- TESTED_TARGET: CDK2/Cyclin E complex (Homo sapiens)
- EXPERIMENT: CDK2/Cyclin E fluorescence-based microfluidic mobility shift assay (CDK2 Biochemical Caliper Assay)
- CONDITIONS: read-out: Biochemical CDK2/CyclinE Caliper IC50
Kindly state IC50 for each of the entries shown.

Sample COCc1cc(C(=O)Nc2cc([C@H]3C[C@@H](COc4nncn4C(C)(C)C)C3)[nH]n2)n(C)n1 ; IC50 observed: ≤ 100 nM

Sample Cc1cc(CC(=O)Nc2cc([C@H]3C[C@@H](COc4nnccc4C(C)C)C3)[nH]n2)on1 ; IC50 observed: ≤ 100 nM

Sample COCc1cc(C(=O)Nc2cc([C@H]3CC[C@@H](Oc4cncc(C)c4)C3)[nH]n2)n(C)n1 (single isomer, unassigned) ; IC50 observed: 1000 to 100000 nM

Sample COCc1cc(C(=O)Nc2cc([C@@H]3CC[C@H](c4ccc(C(C)C)cn4)C3)[nH]n2)n(C)n1 (single isomer, unassigned) ; IC50 observed: 1000 to 100000 nM

Sample Cc1nc(Nc2cc(C3CCCC3)[nH]n2)c2sccc2n1 ; IC50 observed: 1000 to 100000 nM

Sample Cc1cc(CC(=O)Nc2cc([C@H]3C[C@H](CC(=O)NC(C)C)C3)[nH]n2)on1 ; IC50 observed: 1000 to 100000 nM

Sample COCc1cc2c(Nc3cc([C@H]4C[C@@H](COc5nnccc5C(C)C)C4)[nH]n3)nccn2n1 ; IC50 observed: ≤ 100 nM

Sample Cc1cc(CC(=O)Nc2cc([C@@H]3CC[C@H](NC(=O)OC(C)C)C3)[nH]n2)on1 (single isomer, unassigned) ; IC50 observed: 1000 to 100000 nM

Sample CC(C)NC(=O)O[C@@H]1CC[C@H](c2cc(Nc3ccc4c(n3)C(C)(C)NC4=O)n[nH]2)C1 (single isomer, unassigned) ; IC50 observed: ≤ 100 nM

Sample COCc1cc(C(=O)Nc2cc([C@@H]3CC[C@H](c4cnc(C)cn4)C3)[nH]n2)n(C)n1 (single isomer, unassigned) ; IC50 observed: 1000 to 100000 nM

Sample COCc1cc(C(=O)Nc2cc([C@@H]3CC[C@H](Oc4ccc(C(C)C)nn4)C3)[nH]n2)n(C)n1 (single isomer, unassigned) ; IC50 observed: 1000 to 100000 nM

Sample CC(C)NC(=O)O[C@@H]1CC[C@H](c2cc(Nc3ccc4c(c3)C(C)(C)NC4=O)n[nH]2)C1 (single isomer, unassigned) ; IC50 observed: ≤ 100 nM

Sample COCc1cc2c(Nc3cc([C@H]4C[C@@H](OC(=O)NC5(C)COC5)CO4)[nH]n3)nccn2n1 ; IC50 observed: ≤ 100 nM

Sample COCc1nc2ccnc(Nc3cc([C@H]4C[C@@H](OC(=O)NC(C)(C)C)CO4)[nH]n3)c2s1 ; IC50 observed: ≤ 100 nM

====

Kindly state IC50 for each of the entries shown.
- TESTED_TARGET: CDK2/Cyclin E complex (Homo sapiens)
- EXPERIMENT: CDK2/Cyclin E fluorescence-based microfluidic mobility shift assay (CDK2 Biochemical Caliper Assay)
- CONDITIONS: read-out: Biochemical CDK2/CyclinE Caliper IC50

Sample COCc1cc(C(=O)Nc2cc([C@@H]3CC[C@H](Oc4cccnc4C(C)C)C3)[nH]n2)n(C)n1 (single isomer, unassigned) [Example 473] ; IC50 observed: 100 to 250 nM

Sample COCc1cc(C(=O)Nc2cc([C@@H]3CC[C@](C)(CC(=O)NC(C)C)C3)[nH]n2)n(C)n1 (single isomer, unassigned) [Example 420] ; IC50 observed: 1000 to 100000 nM

Sample COC(=O)c1cc(Nc2cc(C3CCCC3)[nH]n2)cnn1 [Example 800] ; IC50 observed: 1000 to 100000 nM

Sample COCc1cc2c(Nc3cc([C@H]4C[C@@H](OC(=O)N[C@H](C)C5COC5)CO4)[nH]n3)nccn2n1 [Example 711] ; IC50 observed: 250 to 1000 nM

Sample COCc1cc(C(=O)Nc2cc([C@@H]3CC[C@H](Oc4nccnc4C(C)C)C3)[nH]n2)n(C)n1 (single isomer, unassigned) [Example 531] ; IC50 observed: ≤ 100 nM

Sample COCc1cc(C(=O)Nc2cc([C@@H]3CC[C@H](Oc4ccc(C)nc4)C3)[nH]n2)n(C)n1 (single isomer, unassigned) [Example 396] ; IC50 observed: 1000 to 100000 nM

Sample Cc1ncccc1O[C@H]1CO[C@@H](c2cc(Nc3nccn4nccc34)n[nH]2)C1 [Example 522] ; IC50 observed: 250 to 1000 nM

====

- TESTED_TARGET: CDK2/Cyclin E complex (Homo sapiens)
- EXPERIMENT: CDK2/Cyclin E fluorescence-based microfluidic mobility shift assay (CDK2 Biochemical Caliper Assay)
- CONDITIONS: read-out: Biochemical CDK2/CyclinE Caliper IC50
Kindly state IC50 for each of the entries shown.

Sample COCc1cc(C(=O)Nc2cc([C@H]3C[C@@H](COc4cn[nH]c4C(C)C)C3)[nH]n2)n(C)n1 ; IC50 observed: 100 to 250 nM

Sample COCc1cc2c(Nc3cc([C@H]4C[C@@H](OC(=O)NC5(COC)CC5)CO4)[nH]n3)nccn2n1 ; IC50 observed: ≤ 100 nM

Sample Cc1cc(C(=O)O)c(Nc2cc(C3CCCC3)[nH]n2)nc1C ; IC50 observed: 1000 to 100000 nM

Sample CCCc1cnnc(Nc2cc(C3CCCC3)[nH]n2)c1 ; IC50 observed: 1000 to 100000 nM

Sample COCc1cc2c(Nc3cc([C@H]4C[C@@H](COc5[nH]ncc5C(C)C)C4)[nH]n3)nccn2n1 ; IC50 observed: ≤ 100 nM

Sample Cc1cc(CC(=O)Nc2cc([C@@H]3CC[C@H](Oc4ccccc4)C3)[nH]n2)on1 (single isomer, unassigned) ; IC50 observed: 1000 to 100000 nM

Sample COCc1cc2c(Nc3cc([C@H]4C[C@@H](Oc5nncn5C5(C)CC5)CO4)[nH]n3)nccn2n1 ; IC50 observed: ≤ 100 nM

Sample COCc1nc2ccnc(Nc3cc([C@H]4C[C@@H](OC(=O)NC(C)(C)COC)CO4)[nH]n3)c2s1 ; IC50 observed: ≤ 100 nM

====

- TESTED_TARGET: CDK2/Cyclin E complex (Homo sapiens)
- EXPERIMENT: CDK2/Cyclin E fluorescence-based microfluidic mobility shift assay (CDK2 Biochemical Caliper Assay)
- CONDITIONS: read-out: Biochemical CDK2/CyclinE Caliper IC50
READOUT_LABEL: IC50

Sample COCc1cc2c(Nc3cc([C@H]4C[C@@H](OC(=O)NC56CC(Cl)(C5)C6)CO4)[nH]n3)nccn2n1 ; IC50 observed: ≤ 100 nM

Sample COCc1cc(C(=O)Nc2cc([C@H]3CC[C@@H](Oc4nnccc4C(F)(F)F)C3)[nH]n2)n(C)n1 (single isomer, unassigned) ; IC50 observed: ≤ 100 nM

Sample CC(C)NC(=O)O[C@H]1CC[C@@H](c2cc(Nc3nccn4nccc34)n[nH]2)C1 (single isomer, unassigned) ; IC50 observed: ≤ 100 nM

Sample CC1(NC(=O)O[C@H]2CO[C@@H](c3cc(Nc4nccn5nc(C(F)F)cc45)n[nH]3)C2)CC1 ; IC50 observed: ≤ 100 nM

Sample CC(C)NC(=O)O[C@@H]1CC[C@H](c2cc(Nc3nccn4nc(C(F)(F)F)cc34)n[nH]2)C1 (single isomer, unassigned) ; IC50 observed: ≤ 100 nM

Sample CC1(C)NC(=O)c2ccc(Nc3cc(C4CCCC4)[nH]n3)nc21 ; IC50 observed: ≤ 100 nM

Sample CC(C)c1[nH]ncc1OC[C@H]1C[C@H](c2cc(Nc3nccn4nccc34)n[nH]2)C1 ; IC50 observed: 1000 to 100000 nM
